Test system: acinar-derived cell line AR42J
Assay: Growth of AR42J cells, IC50 assays
Assay type: cell-based
Details: treatment period 12 days (= 4 doublings)
PROPERTY: pIC50
Answers are plain numbers, as −log10 of the molar value.

pIC50 of CCNCC[C@@H](O)CNCCCCNC[C@H](O)CCNCC.Cl.Cl.Cl.Cl [(R,R)-(HO)2DEHSPM] on acinar-derived cell line AR42J?
7.05
